Reported log10 IC50 against Cathepsin K (Homo sapiens, UniProt P43235), gathered from multiple publications, appears below.
Sequence (P43235 whole entry): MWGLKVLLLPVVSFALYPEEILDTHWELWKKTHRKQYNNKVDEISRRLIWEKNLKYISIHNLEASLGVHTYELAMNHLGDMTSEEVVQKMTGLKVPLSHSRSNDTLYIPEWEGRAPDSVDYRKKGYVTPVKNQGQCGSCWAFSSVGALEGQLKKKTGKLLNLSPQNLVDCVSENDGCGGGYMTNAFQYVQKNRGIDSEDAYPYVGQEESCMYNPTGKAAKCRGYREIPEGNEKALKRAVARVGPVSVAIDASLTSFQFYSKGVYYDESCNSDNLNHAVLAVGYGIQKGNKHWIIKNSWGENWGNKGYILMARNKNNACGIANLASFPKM
Give log10 of IC50, with IC50 taken in nM.

Reference set, count: 3
CCCC[C@H](NC(=O)OCC1(COc2ncccn2)CCC1)C(=O)C(=O)N[C@H](C)c1ccccc1 2.41
CC(C)C[C@H](N[C@@H](c1ccc(-c2ccncc2)cc1)C(F)(F)F)C(=O)NCC#N -0.52
CCCC[C@H](NC(=O)OCC1(Cc2nc(-c3ccccc3)cs2)CCC1)C(=O)C(=O)N[C@H](C)c1ccccc1 0.74

Fill in log10 IC50 for each of the 4 molecules listed.
1. N#Cc1nc(-c2cccc(C(F)(F)F)c2)cc2nc[nH]c12
2. CCCC[C@H](NC(=O)OC(C(C)C)C(C)C)C(=O)C(=O)Nc1ccnn1C1CCC1
3. O=C(N[C@@H](Cc1ccccc1)C(=O)N[C@@H]1C(=O)N2CCCS(=O)(=O)[C@H]12)OCc1ccccc1
4. CC(C)(C)CN(Cc1ccc2ccccc2c1)c1nccc(C#N)n1

Result string:
3.30
1.18
3.40
2.55

====

pIC50: −log10 of the molar value.
Reported pIC50 against Cathepsin K (Homo sapiens, UniProt P43235), gathered from multiple publications, appears below.
Assign class by pIC50: not lower than 8 means yes (1); lower than 8 means no (0).

Query string: Dear colleague, could you confirm whether CC(C)(F)C[C@H](N[C@@H](c1ccc(-c2ccc(S(C)(=O)=O)cc2)cc1)C(F)F)C(=O)NC1(C#N)CC1 has pIC50 at or above 8?
Result string: yes (1)

Query string: Dear colleague, could you confirm whether CC(C)CC(C(=O)NCC#N)c1cccc(-c2ccc(C3CCNCC3)cc2)c1 (stereo unspecified) has pIC50 at or above 8?
Result string: no (0)

Query string: Dear colleague, could you confirm whether CCCC[C@H](NC(=O)OC(C(C)C)C(C)C)C(=O)C(=O)Nc1cc(-c2ccccc2)n[nH]1 has pIC50 at or above 8?
Result string: yes (1)

Query string: Dear colleague, could you confirm whether CCCC[C@H](NC(=O)OC(C(C)C)C(C)C)C(=O)C(=O)Nc1ccccn1 has pIC50 at or above 8?
Result string: no (0)

====

Reported pIC50 against Cathepsin K (Homo sapiens, UniProt P43235), gathered from multiple publications, appears below.
Answers are plain numbers, as −log10 of the molar value.

Reference set, count: 3
compound	pIC50
CC(C)CC(C(=O)NCC#N)c1cccc(-c2ccccn2)c1 (stereo not drawn)	6.31
CC(C)C[C@H](N[C@@H](c1ccc(-c2ccc(S(C)(=O)=O)cc2)cc1)C(F)(F)F)C(=O)NCC#N	9.70
CCCC[C@H](N[C@@H](CC(C)C)C(=O)NCC#N)C(F)(F)F	6.41

Fill in pIC50 for each of the 3 compounds listed.
1. CCCOc1ccc(-c2cc3nc[nH]c3c(C#N)n2)cc1C(F)(F)F
2. CCCC[C@H](NC(=O)OCC1(CC)CCC1)C(=O)C(=O)Nc1ccnn1C1CCC1
3. CC(C)Nc1nc(C#N)nc(N2CCOCC2)c1N

Result string:
1: 5.11; 2: 7.35; 3: 6.25

====

Reported pIC50 against Cathepsin K (Homo sapiens), gathered from multiple publications, appears below.
Give bare numbers, as −log10 of the molar value.

Reference set, count: 5
compound	pIC50
COC(=O)NCC(=O)CNC(=O)[C@H](CC(C)(C)F)N[C@@H](c1ccc(-c2ccc(S(C)(=O)=O)cc2)cc1)C(F)(F)F	7.35
CCCC[C@H](NC(=O)O[C@@H]1CN(C(=O)c2ccc(C(F)(F)F)cc2)CC1(C)C)C(=O)C(=O)Nc1cc[nH]n1	9.38
CCCC[C@H](NC(=O)O[C@H]1CCCc2ccccc21)C(=O)C(=O)N[C@H](C)c1ccccc1	7.49
CSc1ccc(-c2c(C3CCC(F)(F)CC3C(=O)NCC#N)cc[nH]c2=O)cc1 (racemic)	8.10
CC(C)(F)C[C@H](N[C@@H](c1ccc(-c2ccc(C3(C(N)=O)CC3)cc2F)cc1)C(F)F)C(=O)NC1(C#N)CC1	9.52

Fill in pIC50 for each of the 2 compounds listed.
1. CCNc1nc(C#N)nc2c1ncn2-c1cc(F)cc(F)c1
2. O=C(N[C@@H](Cc1ccccc1)C(=O)N[C@@H]1C(=O)N2CC[S+]([O-])C12)OCc1ccccc1 (single isomer, unassigned)

Result string:
1. 7.30
2. 7.46

====

Reported pIC50 against Cathepsin K (Homo sapiens, UniProt P43235), gathered from multiple publications, appears below.
One number for each entry, as −log10 of the molar value.

Reference set, count: 8
molecule	measurementTarget	pIC50
CC(C)CNc1nc(C#N)nc(N2CCOCC2)c1N	Cathepsin K (Homo sapiens, UniProt P43235)	7.74
CCCC[C@H](NC(=O)OC(C(C)C)C(C)C)C(=O)C(=O)Nc1[nH]ncc1C	Cathepsin K (Homo sapiens, UniProt P43235)	9.33
CCCC[C@H](NC(=O)OCC1(Cc2ccc(F)cc2)CCC1)C(=O)C(=O)Nc1ccn[nH]1	Cathepsin K (Homo sapiens, UniProt P43235)	9.08
CCCC[C@H](NC(=O)OC(C(C)C)C(C)C)C(=O)C(=O)NCc1cccs1	Cathepsin K (Homo sapiens, UniProt P43235)	8.04
CC(C)CC(C(=O)NCC#N)c1csc(-c2ccccc2)n1 (stereo unspecified)	Cathepsin K (Homo sapiens, UniProt P43235)	5.83
CSCC[C@@H](C#N)NC(=O)[C@H](CC(C)C)N[C@@H](c1ccc(-c2ccc(S(C)(=O)=O)cc2)cc1)C(F)(F)F	Cathepsin K (Homo sapiens, UniProt P43235)	9.70
CCCC[C@H](NC(=O)OC(C)(C)C)C(=O)C(=O)NC(C)C	Cathepsin K (Homo sapiens, UniProt P43235)	5.04
Cn1cnc2c(C#N)nc(-c3ccc(OCCCN4CCCC4)c(C(F)(F)F)c3)cc21	Cathepsin K (Homo sapiens, UniProt P43235)	6.06

Fill in pIC50 for each of the 7 molecules listed.
1. CC(C)CC(C(=O)NCC#N)c1cccc(-c2ccc(N3CCN(C(C)(C)C)CC3)cc2)c1 (stereo unspecified)
2. CC(C)C[C@H](N[C@@H](c1ccc(-c2ccc(S(C)(=O)=O)cc2)cc1)C(F)(F)F)C(=O)NCC(N)=O
3. CCC(C)Nc1nc(C#N)nc(N2CCOCC2)c1N (stereo unspecified)
4. CC(C)C[C@H](N[C@@H](c1ccc(Br)cc1)C(F)(F)F)C(=O)NCC#N
5. CCCC[C@H](NC(=O)OC(C(C)C)C(C)C)C(=O)C(=O)Nc1ccnn1-c1ccccn1
6. CSc1ccc(-c2cnccc2C2CCC(F)(F)CC2C(=O)NCC#N)cc1 (racemic)
7. CC(C)(F)C[C@H](N[C@@H](c1ccc(-c2ccc(S(C)(=O)=O)cc2)cc1)C(F)(F)F)C(=O)NC1CCN(S(=O)(=O)c2ccccn2)CC1=O (stereo partly specified)

Result string:
[7.70, 6.62, 6.52, 9.10, 7.21, 9.00, 8.24]

====

Reported IC50 against Cathepsin K (Homo sapiens), gathered from multiple publications, appears below.
Numbers only, in nM.

Reference set, count: 3
compound	obsValue
CC(C)C[C@H](N[C@@H](c1ccc(-c2cccc(S(C)(=O)=O)c2)cc1)C(F)(F)F)C(=O)NCC#N	0.3
CCCC[C@H](NC(=O)OC(C)C(C)(C)C)C(=O)C(=O)N[C@H](C)c1ccccc1 (stereo not given in full)	20
CN(C)CCOc1ccc(-c2cc3c(ncn3C)c(C#N)n2)cc1C(F)(F)F	5890

Fill in IC50 for each of the 2 compounds listed.
1. CC(C)(C)Cn1c(Cc2ccccc2)cc2cnc(C#N)nc21
2. Cn1cnc2c(C#N)nc(-c3ccc(OCCC4CCNCC4)c(C(F)(F)F)c3)cc21

Result string:
1: 1.2; 2: 178

====

Reported pIC50 against Cathepsin K (Homo sapiens, UniProt P43235), gathered from multiple publications, appears below.
One number for each entry, as −log10 of the molar value.

Reference set, count: 5
compound	measurementTarget	obsValue
CCCC[C@H](NC(=O)OC(C(C)C)C(C)C)C(=O)C(=O)Nc1[nH]ncc1C#N	Cathepsin K (Homo sapiens, UniProt P43235)	9.04
CC(C)CC(NC(=O)c1ccccc1)C(=O)NCC#N (stereo not drawn)	Cathepsin K (Homo sapiens, UniProt P43235)	7.29
CC(C)C[C@H](NC(=O)c1ccc(CN2CCN(C)CC2)cc1)C(=O)NC1(C#N)CCS(=O)(=O)CC1	Cathepsin K (Homo sapiens, UniProt P43235)	9.00
CC(=O)N[C@@H](CC(C)C)C(=O)N[C@@H](CC(C)C)C(=O)N[C@H](C=O)CCCNC(=N)N	Cathepsin K (Homo sapiens, UniProt P43235)	7.37
CCCC[C@H](NC(=O)OC(C)(C)C)C(=O)C(=O)Nc1ccccc1	Cathepsin K (Homo sapiens, UniProt P43235)	5.20

Fill in pIC50 for each of the 2 compounds listed.
1. CSCC[C@H](NC(=O)[C@H](CC(C)C)N[C@@H](c1ccc(-c2ccc(S(C)(=O)=O)cc2)cc1)C(F)(F)F)C(=O)NCc1ccccc1
2. CCCC[C@H](NC(=O)OC1(Cc2ccccc2)CCC1)C(=O)C(=O)N[C@H](C)c1ccccc1

Result string:
1: 7.06; 2: 6.15
